src = the RNAGym collection of RNA variant scans (doi:10.7554/elife.80360)

B1: Hairpin Ribozyme (parent)
chain: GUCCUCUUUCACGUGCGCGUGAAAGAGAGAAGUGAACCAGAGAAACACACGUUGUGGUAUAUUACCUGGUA

- Variants of: B1
- protocol_description: self-cleavage, relative activity (ratio to wild type); higher = more cleavage; co-transcriptional
measurement_label: self-cleavage
Lab note: write the figure by itself, no unit.

Answered cases to consult:
{"residues": "GUCCUCUUUCACGUGCUCGUGAAAUAGAGAAGUGAACCAGAGAAACACACGUUGUGGUAUAUUACCUGGUA [G17U G25U]", "self-cleavage": 0.637}
{"residues": "GUCCUAUUUCACGUGCGCGUGAAAGAGAGAAUUGAACCAGAGAAACACACGUUGUGGUAUAUUACCUGGUA [C6A G32U]", "self-cleavage": 0.133}
{"residues": "GUCCUCUUUCACGUACGCGUGAAAGCGAGAAGUGAACCAGAGAAACACACGUUGUGGUAUAUUACCUGGUA [G15A A26C]", "self-cleavage": 0.93}
{"residues": "GUCCUCUUUCACGUGCGCGUGAAAGAGAGAAGCGAACCAGAGAAACACACGUUGUCGUAUAUUACCUGGUA [U33C G56C]", "self-cleavage": 0.167}
{"residues": "GUCCUCUUGCACGUGCGCGUGAAACAGAGAAGUGAACCAGAGAAACACACGUUGUGGUAUAUUACCUGGUA [U9G G25C]", "self-cleavage": 0.255}

Input line: I would be grateful if you could share the reported self-cleavage for GUCCUCUUUCACGUGCACGUGAAUGAGAGAAGUGAACCAGAGAAACACACGUUGUGGUAUAUUACCUGGUA [G17A A24U] .
Output line: 1.03

Input line: What would you report for GUCCUUUUUCACGUGCGCGUGAGAGAGAGAAGUGAACCAGAGAAACACACGUUGUGGUAUAUUACCUGGUA [C6U A23G] ?
Output line: 0.768

Input line: What would you report for GUCCUCUUUCACGUGCGCGUGAAAGAGAGAAGUGAACCAGAGAAAUACUCGUUGUGGUAUAUUACCUGGUA [C46U A49U] ?
Output line: 0.239

Input line: What would you report for GUCCCCUUUCACGUGCGCGUGAAAGAGAGAAGUGAGCCAGAGAAACACACGUUGUGGUAUAUUACCUGGUA [U5C A36G] ?
Output line: 0.502

Input line: What would you report for GUCCUCUUUCACGUGCGCGUGAAAGAGAGAAGUGAACCAGAGAAACACACGUUGUGGUAUAUUGCCUCGUA [A64G G68C] ?
Output line: 0.122
